A collection of compounds and their measured GI50
Tested on: KM12
Assay: NCI tumour cell line growth inhibition, 48 h
Active and inactive are the calls of the source. Rule as the data show it: active = GI50 up to about 1.1 µM and inactive = higher.

smiles.str	GI50
N=C(N)NS(=O)(=O)c1ccc(/N=N/c2c(O)c(C(=O)O)cc3ccccc23)cc1	> 100 µM (inactive)
C[Si](C)(OCCS(=O)(=O)O)C1(Cc2cccc3ccccc23)S(=O)(=O)OCCOS1(=O)=O	14.4 µM (inactive)
CCNc1ncnc2c1nnn2CC	> 100 µM (inactive)
O=C(N/C(=C\c1cccc([N+](=O)[O-])c1)c1nc2c(O)nc(S)nc2[nH]1)c1ccccc1	> 100 µM (inactive)
COc1ccc2nccc(/C=C/c3ccc(N(C)C)cc3)c2c1	> 10 µM (inactive)
Cc1ccc(S(=O)(=O)N2CCSCCSCCSCCSCC2)cc1	> 100 µM (inactive)
O=C1C(=Cc2c(O)cc(O)cc2O)C(=O)c2ccccc21	> 36.7 µM (inactive)
COc1cc(CCCOC(=O)/C=C/c2ccc(O)c(O)c2)cc(O)c1O	44.2 µM (inactive)

* * *

A collection of molecules and their measured GI50
Test system: MDA-MB-435
Assay: NCI tumour cell line growth inhibition, 48 h
Active and inactive are the calls of the source. No stated cut-off is given here; in the data, active = GI50 up to about 1.1 µM and inactive = higher.
quantity.measured: GI50

molecule	quantity.measured	observed
COC(NC(N)=O)C(=O)O (centres undefined)	GI50	> 100 µM (inactive)
CCC(CCN)(CCN)[N+](=O)[O-]	GI50	> 100 µM (inactive)
COc1cc(CCCOC(=O)/C=C/c2ccc(O)c(O)c2)cc(O)c1O	GI50	28.6 µM (inactive)
O=c1c(C(c2cc(OCc3ccccc3)cc(OCc3ccccc3)c2)c2c(O)oc3ccccc3c2=O)c(O)oc2ccccc12	GI50	4.83 µM (inactive)
O=C1C[C@@H](c2ccccc2)O[C@@H](c2ccccc2)C1	GI50	> 100 µM (inactive)
OC(c1ccc(Cl)cc1)(c1ccc(Cl)cc1)c1cncnc1	GI50	18.3 µM (inactive)
Cc1nc(-c2ccc(/N=C/c3ccc(N(CCOS(C)(=O)=O)CCOS(C)(=O)=O)cc3C)cc2)cs1	GI50	72.9 µM (inactive)
O=C(O)C12C3CCC(O3)C1(C(=O)O)C1CCC2O1 (centres undefined)	GI50	> 100 µM (inactive)
O=C1CCSSCCC(=O)Nc2ccccc2N1	GI50	> 100 µM (inactive)

* * *

Test system: TK-10
Assay: NCI tumour cell line growth inhibition, 48 h
Active and inactive are the calls of the source. No stated cut-off is given here; in the data, active = GI50 up to about 1.1 µM and inactive = higher.
Outcomes: True (active), False (inactive)

molecule	label
COc1ccc(C2C(=O)c3c(OC)cc(OC)cc3OC2c2cccnc2)cc1 (stereo unspecified)	False
Cc1c2cccc-2c(OCCO)cc2c3ccccc3n(C)c12	False
C/C(=N\NC(=S)N1CCC1)c1ccccn1	False
CCCCN(CCCC)C(=O)/C(CC(=O)c1cccc2ccccc12)=N\NC(=O)c1cc2ccccc2cc1O	False
Cc1nc(-c2ccc(/N=C/c3ccc(N(CCOS(C)(=O)=O)CCOS(C)(=O)=O)cc3C)cc2)cs1	False
CC(=O)c1ccc(/N=N/c2ccc3nonc3c2N)cc1	False
CN(CC1(CO)CCC1)c1cc(Cl)nc(N)n1	False
C=CCN(c1cc(OCc2ccccc2)c2c(c(C)cn2S(=O)(=O)c2ccc([N+](=O)[O-])cc2)c1[N+](=O)[O-])S(C)(=O)=O	False
CN(CCCCCl)P(=O)(OCc1ccc([N+](=O)[O-])o1)OCC1OC(n2ccc(N)nc2=O)C(O)C1O (stereo unspecified)	False
CCc1c(OC(C)=O)c2c(NC3OCC(OC(C)=O)C(OC(C)=O)C3OC(C)=O)nc(SC)nc2oc1=O (stereo unspecified)	False
Cc1c2cc[n+](C)cc2c(C)c2c1oc1ccccc12	False
O=C1CCCCCCCCCCC(=O)C2CCOCCOCCOCCC1Cc1cccc(n1)C2	False
CCCCCCCCCCCCOCC(COP(=O)(O)OCCN=[N+]=[N-])OC(=O)CCCCCCCCCCC (stereo unspecified)	False
CN(C(=S)Cc1ccc(Cl)c(Cl)c1)C1CCCC[C@@H]1N1CCCC1 (stereo partly specified)	False
C1=CC2=CC=CC3c4nc5ccc6ccccc6c5nc4C(=C1)C23 (stereo unspecified)	False
COc1cccc(/C=C2\N=C(c3ccccc3)OC2=O)c1	False
COC(=O)C(Cc1nc2ccc(Cl)cc2nc1O)C(=O)C(=O)Nc1ccccc1[N+](=O)[O-] (stereo unspecified)	False
COC(=O)c1c(O)ccc2c1c1c(n2CCc2ccc(OC)c(OC)c2)C(=O)c2ccccc2C1=O	False
CC1(c2cccc(C3CC4(CCC3=O)OCCCCO4)c2)OCCO1 (stereo unspecified)	False
COc1ccc2c(c1O)[C@@]13C=C(O)C(=O)C=C1[C@@H](C2)N(C)CC3	False
NCCCNOCCCN	False
O=C1CCSSCCC(=O)Nc2ccccc2N1	False
CN(C)C(=S)/N=c1\ss/c(=N\C(=S)N(C)C)n1-c1ccc2c(c1)OCO2	False
O=C1CN(c2ccccc2)C(=O)CN1CCN1CC(=O)N(c2ccccc2)CC1=O	False
C[C@H]1C[C@@H]2[C@H]([C@@H](O)C[C@@]3(C)[C@H]2CC[C@]3(O)C(=O)CO)[C@@]2(C)C=CC(=O)C=C12	False
O=c1[nH]nc(NCc2ccccc2)c2nnn(Cc3ccccc3)c12	False
CN(CCCN(C)Cc1ccc(Cl)c(Cl)c1)CCN1CCCC1	False
CCCCN/C(=N\C#N)N(Cc1ccccc1)Cc1ccccc1	False
CSc1nc(SC)c2c(C)cn(Cc3ccccc3)c2n1	False
Cn1ccnc1CC(C)(O)c1ccccc1 (stereo unspecified)	False
CCC(O)(c1ccc(OC)cc1)C(c1ccc(OCc2ccccc2)cc1)c1ccc(OCc2ccccc2)cc1 (stereo unspecified)	False
CC(O)(Cc1ccccc1C#N)Cc1ccccc1C#N	False
COC(=O)/C=C/c1cc(OC)c2c(c1)C(C(=O)OC)C(c1ccc(OC)c(OC)c1)O2 (stereo unspecified)	False
CN(C)c1ccc(C(=O)NCCCCCCC(=O)NO)cc1	True
CC1(C)COC(c2ccc(C(F)(F)F)cc2C(O)c2ccc3ccccc3c2)=N1 (stereo unspecified)	False
CCN1CCC(O)(c2ccccc2)C(C(=O)c2ccccc2)C1 (stereo unspecified)	False
CC(=O)c1ccc(N2CCN(C3=C(Cl)C(=O)c4c(O)ccc(O)c4C3=O)CC2)cc1	False
COC(=O)CC(NC(=O)OCc1ccccc1)C(C(C)=O)C(=O)OCc1ccccc1 (stereo unspecified)	False
CCOC(=O)c1c(-c2ccc(OC)cc2)ccn1C	False
COc1ccc2c(c1)O[C@@H]1[C@@H](OC3OC(CO)C(O)C(O)C3O)Oc3cc(OC)c(OC)cc3[C@]1(O)C2=O (stereo partly specified)	False
Nc1nc(Cl)cc(NCC(O)CO)n1 (stereo unspecified)	False

Ref: ChEMBL document CHEMBL1201862
